src = patent US20090048229A1

tested.target: AChE (Homo sapiens)
Sequence (P22303 32-614): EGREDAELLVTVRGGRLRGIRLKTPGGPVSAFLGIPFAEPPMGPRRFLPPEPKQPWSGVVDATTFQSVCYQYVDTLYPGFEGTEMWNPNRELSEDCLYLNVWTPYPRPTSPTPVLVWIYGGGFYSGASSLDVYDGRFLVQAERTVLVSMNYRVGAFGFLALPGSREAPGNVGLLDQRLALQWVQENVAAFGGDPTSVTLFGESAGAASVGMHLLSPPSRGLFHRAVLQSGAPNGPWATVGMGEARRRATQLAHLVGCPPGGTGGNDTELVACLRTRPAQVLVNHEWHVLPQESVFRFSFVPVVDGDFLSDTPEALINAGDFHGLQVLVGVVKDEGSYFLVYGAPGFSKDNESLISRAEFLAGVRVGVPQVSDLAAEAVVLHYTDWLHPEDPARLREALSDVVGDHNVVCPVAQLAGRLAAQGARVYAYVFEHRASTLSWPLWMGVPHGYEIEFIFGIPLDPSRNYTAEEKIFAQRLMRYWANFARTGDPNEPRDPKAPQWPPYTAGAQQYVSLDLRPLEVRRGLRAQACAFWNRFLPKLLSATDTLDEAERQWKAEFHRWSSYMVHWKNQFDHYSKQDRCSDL
Format: biochemical
run.parameters: 10 μM
Task for the reader: assign each of the following compounds its reported AChEI (%) 10 μM.
Give bare numbers, in %.

Solved entries (count: 2):
C#CCN(C(=O)Oc1ccc2c(c1)[C@]1(C)CCN(C)[C@@H]1N2C)[C@H](C)Cc1ccccc1 [Compound 18, Physo-desmethylselegiline] :: 37
C[C@@H](c1cccc(OC(=O)N(C)CCCN2c3ccccc3CCc3ccccc32)c1)N(C)C [Compound 4, S-riva-desipramine] :: 99

Answer for every listed entry: what is its AChEI (%) 10 μM? The entries follow.
1. C[C@@H](c1cccc(OC(=O)N[C@H]2C[C@@H]2c2ccccc2)c1)N(C)C (stereo in doubt) [Compound 2, S-riva-tranylcypromine]
2. C[C@@H](c1cccc(OC(=O)N2CCN(C3=Nc4ccccc4Oc4ccc(Cl)cc43)CC2)c1)N(C)C [Compound 3, S-riva-amoxapine]
3. C[C@@H](c1cccc(OC(=O)N2CC[C@@H](c3ccc(F)cc3)[C@H](COc3ccc4c(c3)OCO4)C2)c1)N(C)C [Compound 9A, S-riva-paroxetine]
4. C[C@H](Cc1ccccc1)N(C)C(=O)Oc1cccc([C@H](C)N(C)C)c1 [Compound 7, S-riva-l-methamphetamine]

Reply:
97
16
69
79

---

test.summary: Dose range for cholinergic effects / max tolerated dose
Format: in vivo, rat
run.parameters: s.c., rats
endpoint.label: Max Tolerated Dose

Examples with answers:
CC(CC1CCCCC1)N(C)C(=O)Oc1cccc([C@H](C)N(C)C)c1 (some centres unmarked) :: ≧100
C[C@@H](c1cccc(OC(=O)N(C)CCCC2c3ccccc3C=Cc3ccccc32)c1)N(C)C :: >100
C[C@@H](c1cccc(OC(=O)N2CCN(C3=Nc4ccccc4Oc4ccc(Cl)cc43)CC2)c1)N(C)C :: ≧100
C[C@@H](c1cccc(OC(=O)N(C)CCC(Oc2ccc(C(F)(F)F)cc2)c2ccccc2)c1)N(C)C (some centres unmarked) :: ≧100
C[C@@H](c1cccc(OC(=O)N(C)CCCN2c3ccccc3CCc3ccccc32)c1)N(C)C :: ≧100
C[C@@H](c1cccc(OC(=O)N[C@H]2C[C@@H]2c2ccccc2)c1)N(C)C (stereo in doubt) :: 30
CCN(C)C(=O)Oc1cccc([C@H](C)N(C)C)c1 [Compound 1, S-rivastigmine, reference compound] :: 10

// switching to the query molecule
get_value(item= Cc1ccccc1O[C@H](CCN(C)C(=O)Oc1cccc([C@H](C)N(C)C)c1)c1ccccc1 , readout=Max Tolerated Dose) returns ≧100

---

tested.target: human recombinant acetylcholinesterase (Homo sapiens, UniProt P22303)
Construct: purchased Sigma Chemical Co (St. Louis, Mo.) C1682
test.summary: biochemical
run.parameters: 30 min preincubation, 25° C.; read-out: Inhibition of AChE IC50
Method: All reagents employed in this experiment were of analytical grade. Acetylthiocholine iodide and 5,5′-dithiobis-(2-nitro)benzoic acid (DTNB) and human recombinant acetylcholinesterase (C1682) were purchased from Sigma Chemical Co (St. Louis, Mo.). The enzyme, compound or stigmine and buffer were preincubated for 30 minutes. […] Hydrolysis of acetylthiocholine was monitored indirectly by measurement of the formation of the conjugate between thiocholine and DTNB.
Would you kindly list pIC50 for each of these compounds?
One number for each entry, as −log10 of the molar value.

List the reported pIC50 of each compound below.
1. C[C@@H](c1cccc(OC(=O)N(C)[C@@H](C)Cc2ccccc2)c1)N(C)C
2. C[C@@H](Cc1ccccc1)NC(=O)Oc1cccc([C@H](C)N(C)C)c1

Reply:
1. 5.96
2. 5.51

Could you report pIC50 for every entry in the following list?
1. C[C@H](Cc1ccccc1)N(C)C(=O)Oc1cccc([C@H](C)N(C)C)c1
2. C[C@H](Cc1ccccc1)NC(=O)Oc1cccc([C@H](C)N(C)C)c1

Reply:
1: 5.49; 2: 5.51
